Cited source: patent US20200399712A1

# Test system: HPV-16
# measurement_description: qPCR sensitivity against HPV-HNSCC tumor samples diluted among 10 ng normal human DNA
# condition_notes: 32 HPV-HNSCC tumor samples
// sensitivity under 100 cells lookup, one value per entry
Return type: number; implicit unit %.

- molecule: "HR E5L2-4: primer/probe set for junction between E5 and L2, SEQ ID NO: 55-57 (same as SEQ ID NO: 4-6) (nucleic acid, chemistry not given here) DNA 1: GCAAAACGCACAAAACGTGC DNA 2: GACATGTACCTGCCTGTTTGC DNA 3: CGGCTACCCAACTTTATAAAACA"
  sensitivity under 100 cells, %: 93.8

Would you kindly look at the next entry?
BR E1-4: HPV-16 E1 region primer/probe set, SEQ ID NO: 37-39 (nucleic acid, chemistry not given here) DNA 1: ATGCACAATTGGCAGACACTA DNA 2: ACAATCCTTTACAATTTTTGCCTGT DNA 3: TAATGCAAGTGCCTTTCTAAAAAGT yielded sensitivity under 100 cells of 93.8
